Provenance of the data: patent US20230139171A1

Target: human TLR7 (Homo sapiens)
Construct: host or cells: HEK-Blue cells
Sequence (Q9NYK1 27-1049): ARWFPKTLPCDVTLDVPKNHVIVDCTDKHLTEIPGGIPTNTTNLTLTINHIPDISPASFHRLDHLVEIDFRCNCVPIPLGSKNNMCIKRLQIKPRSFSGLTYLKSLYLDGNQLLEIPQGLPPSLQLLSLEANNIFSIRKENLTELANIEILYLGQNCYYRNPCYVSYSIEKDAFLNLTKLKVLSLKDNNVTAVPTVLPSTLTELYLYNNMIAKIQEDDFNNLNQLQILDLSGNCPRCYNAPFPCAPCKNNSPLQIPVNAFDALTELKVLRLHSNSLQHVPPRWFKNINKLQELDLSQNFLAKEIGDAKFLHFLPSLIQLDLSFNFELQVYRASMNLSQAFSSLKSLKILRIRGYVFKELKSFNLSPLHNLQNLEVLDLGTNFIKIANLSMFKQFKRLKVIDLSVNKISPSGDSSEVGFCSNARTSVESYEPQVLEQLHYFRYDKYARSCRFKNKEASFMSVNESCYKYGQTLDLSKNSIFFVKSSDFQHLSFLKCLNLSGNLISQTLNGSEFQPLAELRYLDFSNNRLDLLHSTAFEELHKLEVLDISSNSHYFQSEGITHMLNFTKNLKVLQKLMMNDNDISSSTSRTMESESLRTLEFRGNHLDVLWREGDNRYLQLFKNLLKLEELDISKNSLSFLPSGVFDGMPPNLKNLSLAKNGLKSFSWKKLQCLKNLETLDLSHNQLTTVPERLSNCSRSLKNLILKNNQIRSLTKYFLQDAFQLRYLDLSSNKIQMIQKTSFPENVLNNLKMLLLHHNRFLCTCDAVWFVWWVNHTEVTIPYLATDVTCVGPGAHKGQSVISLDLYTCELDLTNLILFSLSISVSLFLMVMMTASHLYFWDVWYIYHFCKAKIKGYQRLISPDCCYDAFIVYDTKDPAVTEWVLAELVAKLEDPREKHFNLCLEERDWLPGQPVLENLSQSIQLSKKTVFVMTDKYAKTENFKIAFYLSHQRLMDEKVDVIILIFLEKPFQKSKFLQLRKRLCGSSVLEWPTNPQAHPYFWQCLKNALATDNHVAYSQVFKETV
Experiment: TLR7 inhibition reporter assay (HEK-Blue cells, SEAP reporter, gardiquimod stimulation)
Assay type: cell-based
Conditions: HEK-Blue cells overexpressing human TLR7, SEAP reporter, gardiquimod 7.5 μM; read-out: TLR7 IC50
measurement label: IC50 (nM)

Cc1c(-c2[nH]c3sc(C4CCN(CC5CC5)CC4)nc3c2C(C)C)cn2ncnc2c1C
0.94
Cc1c(-c2[nH]c3sc(N4CC5(CN(CC6CCOCC6)C5)C4)nc3c2C(C)C)cn(C)c(=O)c1C
118
COc1cc(-c2[nH]c3nc(C4CCNCC4)sc3c2C(C)C)cn2ncnc12
130
Cc1c(-c2[nH]c3sc(CNC4CCN(C(C)C)CC4)nc3c2C(C)C)cn2ncnc2c1C
36.9
CC(C)c1c(-c2cn(C)c3ncccc23)[nH]c2sc(C3CCN(C4COC4)CC3)nc12
4.44
Cc1c(-c2[nH]c3sc(C4CCN(CC(N)=O)CC4)nc3c2C(C)C)cn(C)c(=O)c1C
32.7
COC1CN(C2CCC(c3nc4c(C(C)C)c(-c5cn6ncnc6cc5C)[nH]c4s3)CC2)C1 (single isomer, unassigned) [Example 151]
49.2
COc1cc(-c2[nH]c3sc(C4CCC(NC5CC6(CNC6)C5)CC4)nc3c2C(C)C)cn2ncnc12 (single isomer, unassigned) [Example 117]
5.72
CCN(C)C1CCC(c2nc3c(C(C)C)c(-c4cc(OC)c5ncnn5c4)[nH]c3s2)CC1 (single isomer, unassigned) [Example 72]
1.23
Cc1cc(-c2[nH]c3sc(C4CCC(NC5COC5)CC4)nc3c2C(C)C)cn2ncnc12 (single isomer, unassigned) [Example 130]
0.45
Cc1c(-c2[nH]c3sc(C4CCC(N5CC(F)C5)CC4)nc3c2C(C)C)cn2ncnc2c1C (single isomer, unassigned) [Example 226]
0.35
Cc1c(-c2[nH]c3sc(C4CCC(NC5COC5)CC4)nc3c2C(C)C)cn(C)c(=O)c1C (single isomer, unassigned) [Example 242]
47.1
Cc1c(-c2[nH]c3sc(C4CCN(C5CCOCC5)CC4)nc3c2C(C)C)cn2ncnc2c1C
0.57
Cc1c(-c2[nH]c3sc(C(=O)NC4CCC(N(C)C)CC4)nc3c2C(C)C)cn2ncnc2c1C (single isomer, unassigned) [Example 369]
18
